Data provenance is patent US12115152B2.

Below: a set of entries, each annotated with reported half-life.
assay-info: Pharmacokinetic parameters in rats
Assay type: in vivo, SD rats
details: male, SD, rat, plasma, po, 10 mg/kg, oral administration (gavage) 10 mg/kg, average n=3, read-out: T½ (converted)
Lab book: enter the figure in h, no units written.

molecule	half-life, h
Cc1ccc(NC(=O)c2cccc(C(F)(F)F)c2)cc1-n1cc(-c2cncc(N3CCOCC3)c2)cn1	3.02

Could you now look at the following molecule, please?
query: Answer with reported half-life of Cc1ccc(NC(=O)c2cccc(C(F)(F)F)c2)cc1-n1cc(-c2cccnc2)cn1 [compound 1, reference compound]
result: 0.906

###

assay-info: Pharmacokinetic parameters in rats
Assay type: in vivo, SD rats
details: male, Sprague-Dawley, rat, plasma, po, 10 mg/kg, oral administration (gavage) 10 mg/kg, average n=3, read-out: MRT0-t
Description: In the example, SD rats (180-220 g, male) (purchased from Experimental Animal Center of Anhui Medical University, China) were used. The animals were kept in cages ventilated independently with 6 rats per cage. The feeding was performed at a temperature of 20˜26° C. and a humidity of 35-75%. The light condition was 12 hours of lighting/12 hours of darkness. The corncob bedding was refreshed once a week. The rats were fed with foods and drinking water on an ad libitum basis. […]
Below: a set of entries, each annotated with reported MRT last.
Write your answer as a measured quantity: the number, then the unit.

compound	property	readout-value
Cc1ccc(NC(=O)c2cccc(C(F)(F)F)c2)cc1-n1cc(-c2cccnc2)cn1 [compound 1, reference compound]	MRT last	1.56 h

Could you now look at the following compound, please?
query: Answer with reported MRT last of Cc1ccc(NC(=O)c2cccc(C(F)(F)F)c2)cc1-n1cc(-c2cncc(N3CCOCC3)c2)cn1 [Example 16]
result: 6.62 h

###

assay-info: Pharmacokinetic parameters in rats
Assay type: in vivo, SD rats
details: male, Sprague-Dawley, rat, plasma, iv, 1 mg/kg, intravenous injection 1 mg/kg, individual rats #1-#3, read-out: Cmax
Below: a set of entries, each annotated with reported Cmax.
Lab book: enter the figure in ng/mL, no units written.

compound	Cmax, ng/mL
Cc1ccc(NC(=O)c2cccc(C(F)(F)F)c2)cc1-n1cc(-c2cccnc2)cn1 [compound 1, reference compound]	200

query: Answer with reported Cmax of `Cc1ccc(NC(=O)c2cccc(C(F)(F)F)c2)cc1-n1cc(-c2cncc(N3CCOCC3)c2)cn1`
result: 1020

###

assay-info: Pharmacokinetic parameters in rats
Assay type: in vivo, SD rats
details: male, Sprague-Dawley, rat, plasma, iv, 1 mg/kg, intravenous injection 1 mg/kg, average n=3, read-out: Tmax
Below: a set of entries, each annotated with reported Tmax.

molecule	Tmax
Cc1ccc(NC(=O)c2cccc(C(F)(F)F)c2)cc1-n1cc(-c2cncc(N3CCOCC3)c2)cn1	1.98 min

Could you now look at the following molecule, please?
query: Answer with reported Tmax of Cc1ccc(NC(=O)c2cccc(C(F)(F)F)c2)cc1-n1cc(-c2cccnc2)cn1 [compound 1, reference compound]
result: 1.98 min

###

Below: a set of entries, each annotated with reported MRT inf.
assay-info: Pharmacokinetic parameters in rats
Assay type: in vivo, SD rats
details: male, Sprague-Dawley, rat, plasma, po, 10 mg/kg, oral administration (gavage) 10 mg/kg, average n=3, read-out: MRT0-∞
Procedure: In the example, SD rats (180-220 g, male) (purchased from Experimental Animal Center of Anhui Medical University, China) were used. The animals were kept in cages ventilated independently with 6 rats per cage. The feeding was performed at a temperature of 20˜26° C. and a humidity of 35-75%. The light condition was 12 hours of lighting/12 hours of darkness. The corncob bedding was refreshed once a week. The rats were fed with foods and drinking water on an ad libitum basis. […]
Lab book: enter the figure in h, no units written.

compound	MRT inf / h
Cc1ccc(NC(=O)c2cccc(C(F)(F)F)c2)cc1-n1cc(-c2cncc(N3CCOCC3)c2)cn1	6.81

Could you now look at the following compound, please?
query: Answer with reported MRT inf of Cc1ccc(NC(=O)c2cccc(C(F)(F)F)c2)cc1-n1cc(-c2cccnc2)cn1 [compound 1, reference compound]
result: 1.64
